Value source: patent US12084430B2

So I've got a bunch of compounds here, and I need their IC50 values.
- measurement target: catalytic domain (JH1, amino acids 826-1132) of human JAK2 (Homo sapiens, UniProt O60674)
- Construct: catalytic domain (JH1, amino acids 826-1132) of human JAK2; FLAG (N); biotin (biotinylated); purchased Carna Biosciences 08-445-20N; host or cells: baculovirus expression system
- Sequence (O60674 826-1132): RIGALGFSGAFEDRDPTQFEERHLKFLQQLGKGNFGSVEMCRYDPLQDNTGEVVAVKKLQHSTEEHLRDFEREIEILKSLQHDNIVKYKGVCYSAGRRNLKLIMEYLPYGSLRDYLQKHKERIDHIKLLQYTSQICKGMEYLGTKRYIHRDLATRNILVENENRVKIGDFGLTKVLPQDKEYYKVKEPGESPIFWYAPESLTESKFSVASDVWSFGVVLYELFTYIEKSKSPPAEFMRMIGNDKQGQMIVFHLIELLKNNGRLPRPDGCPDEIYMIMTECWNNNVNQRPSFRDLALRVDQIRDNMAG
- assay text: JAK2 LanthaScreen JH1 binding assay
- settings: Table C; read-out: JH1 Bind IC50
- Experimental: Example A. JAK2 LanthaScreen […] Binding Assay JAK2 JH1 binding assay utilizes catalytic domain (JH1, amino acids 826-1132) of human JAK2 expressed as N-terminal FLAG-tagged, biotinylated protein in a baculovirus expression system (Carna Biosciences, Product #08-445-20N). The assay was conducted in black 384-well polystyrene plates in a final reaction volume of 20 μL. […] After incubation for 2 hours at 25° C., LanthaScreen signals were read on a PHERAstar FS plate reader (BMG LABTECH). […]

# count of solved cases: 8
{"compound": "[2H]C([2H])([2H])n1ncc2cc(-c3c(-c4cn(C)nc4OC)[nH]c4ncc5c(c34)n([C@@H]3CC[C@@H](NC(=O)OC)C3)c(=O)n5C)ccc21 [Example 5]", "reported result": "> 1000 nM"}
{"compound": "[2H]C([2H])([2H])n1cc(-c2[nH]c3ncc4c(c3c2-c2ccc(C(C)(C)O)cc2)n([C@@H]2CC[C@@H](NC(=O)OC)C2)c(=O)n4C([2H])([2H])[2H])c(F)n1 [Example 10]", "reported result": "> 1000 nM"}
{"compound": "COC(=O)N[C@@H]1CC[C@@H](n2c(=O)n(C)c3cnc4[nH]c(-c5cn(C)nc5OC)c(-c5ccc(OC)c(F)c5)c4c32)C1 [Example 4]", "reported result": "> 1000 nM"}
{"compound": "[2H]C([2H])([2H])n1cc(-c2[nH]c3ncc4c(c3c2-c2ccc3c(cnn3C([2H])([2H])[2H])c2)n([C@@H]2CC[C@@H](NC(=O)OC)C2)c(=O)n4C([2H])([2H])[2H])c(F)n1 [Example 6]", "reported result": "> 1000 nM"}
{"compound": "[2H]C([2H])([2H])n1cc(-c2[nH]c3ncc4c(c3c2-c2ccc3c(cnn3CC(F)F)c2)n([C@@H]2CC[C@@H](NC(=O)OC)C2)c(=O)n4C([2H])([2H])[2H])c(F)n1 [Example 14]", "reported result": "> 1000 nM"}
{"compound": "COC(=O)N[C@@H]1CC[C@@H](n2c(=O)n(C)c3cnc4[nH]c(-c5cn(C)nc5OC)c(-c5ccc(F)cc5)c4c32)C1 [Example 1]", "reported result": "> 1000 nM"}
{"compound": "[2H]C([2H])([2H])n1cc(-c2[nH]c3ncc4c(c3c2-c2cc(F)c3c(cnn3C([2H])([2H])[2H])c2)n([C@@H]2CC[C@@H](NC(=O)OC)C2)c(=O)n4C([2H])([2H])[2H])c(F)n1 [Example 17]", "reported result": "> 1000 nM"}
{"compound": "[2H]C([2H])([2H])n1cc(-c2[nH]c3ncc4c(c3c2-c2ccc3c(c2)COC3(C)C)n([C@@H]2CC[C@@H](NC(=O)OC)C2)c(=O)n4C([2H])([2H])[2H])c(F)n1 [Example 8]", "reported result": "> 1000 nM"}

Items follow; give IC50 for each.
1. [2H]C([2H])([2H])n1ncc2cc(-c3c(-c4cn(C([2H])(C([2H])([2H])[2H])C([2H])([2H])[2H])nc4F)[nH]c4ncc5c(c34)n([C@@H]3CC[C@@H](NC(=O)OC)C3)c(=O)n5C([2H])([2H])[2H])ccc21 [Example 21]
2. COC(=O)N[C@@H]1CC[C@@H](n2c(=O)n(C)c3cnc4[nH]c(-c5cn(C)nc5OC)c(-c5ccccc5)c4c32)C1 [Example 2]
3. [2H]C([2H])([2H])n1cc(-c2[nH]c3ncc4c(c3c2-c2ccc3c(c2)COC3(C)C)n([C@@H]2CC[C@@H](NC(=O)OC)C2)c(=O)n4C)c(F)n1 [Example 11]
4. [2H]C([2H])([2H])n1ncc2cc(-c3c(-c4cn(C([2H])([2H])C([2H])([2H])[2H])nc4F)[nH]c4ncc5c(c34)n([C@@H]3CC[C@@H](NC(=O)OC)C3)c(=O)n5C([2H])([2H])[2H])ccc21 [Example 15]
5. [2H]C([2H])([2H])n1c(=O)n([C@@H]2CC[C@@H](NC(=O)OC)C2)c2c3c(-c4ccc5c(c4)COC5(C)C)c(-c4cn(C([2H])([2H])C([2H])([2H])[2H])nc4F)[nH]c3ncc21 [Example 19]

1: > 1000 nM; 2: > 1000 nM; 3: > 1000 nM; 4: > 1000 nM; 5: > 1000 nM
